Recorded pEC50 by entry
Biological target: UniProtKB P60953
Sequence (P60953 whole entry, looked up): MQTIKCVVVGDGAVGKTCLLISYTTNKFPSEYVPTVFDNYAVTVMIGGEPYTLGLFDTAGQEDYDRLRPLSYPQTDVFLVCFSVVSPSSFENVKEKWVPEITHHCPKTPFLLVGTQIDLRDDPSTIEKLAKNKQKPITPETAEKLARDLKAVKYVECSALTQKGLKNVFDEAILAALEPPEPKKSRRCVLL
Assay: inhibitors of activated Cdc42 GTP binding, SAR follow-up, selectivity assay for Rab7 inhibitor project, biochemical, activated mutant, bead multiplex, flow cytometry, round 1 (AID 588384)
Conditions: GST-Cdc42 act beads, fluorescent GTP binding
pEC50: −log10 of the molar value.

{"columns": ["molecule", "pEC50"],
 "data": [
  ["CC1(C)Cc2c(sc(NC(=S)NC(=O)c3cccc(Br)c3)c2C(=O)O)CO1", 5.25],
  ["CC1(C)Cc2c(sc(NC(=O)NC(=O)c3ccccc3)c2C(=O)O)CO1", 6.33],
  ["CC1(C)Cc2c(sc(NC(=S)NC(=O)c3ccc(Br)cc3)c2C(=O)O)CO1", 6.54],
  ["COc1cccc(C(=O)NC(=S)Nc2sc3c(c2C(=O)O)CC(C)(C)OC3)c1", 7.27],
  ["CC1(C)Cc2c(sc(NC(=S)NC(=O)c3ccccc3F)c2C(=O)O)CO1", 7.29],
  ["CC1(C)Cc2c(sc(NC(=S)NC(=O)c3ccccc3Br)c2C(=O)O)CO1", 7.27],
  ["O=C(NC(=S)Nc1sc2c(c1C(=O)O)CCOC2)c1ccccc1", 7.36],
  ["CC1(C)Cc2c(sc(NC(=S)NC(=O)c3cccc(F)c3)c2C(=O)O)CO1", 6.49],
  ["COc1ccc(C(=O)NC(=S)Nc2sc3c(c2C(=O)O)CC(C)(C)OC3)cc1", 6.69],
  ["CC1Cc2c(sc(NC(=S)NC(=O)c3ccccc3)c2C(=O)O)CO1 (stereo unspecified)", 7.05],
  ["CC1(C)CCc2sc(NC(=S)NC(=O)c3ccccc3)c(C(=O)O)c2C1", 6.97]
]}

Origin of values: PubChem BioAssay AID588384
